# details: substrate 2.0 μM, 37° C., no cofactors
compounds and their reported % of Propofol Released from Propofol Prodrugs after 60 min, Human Plasma
property.measured: % of Propofol Released from Propofol Prodrugs after 60 min, Human Plasma (%)

| compound | unit.symbol | reported.measurement |
| --- | --- | --- |
| CC(C)c1cccc(C(C)C)c1OC(=O)OC(C)C(NC(=O)C(N)CCCCN)C(=O)O.Cl.Cl (centres unmarked) | % | 12 |
| CSCCC(N)C(=O)NC(C(=O)O)C(C)OC(=O)Oc1c(C(C)C)cccc1C(C)C.Cl (centres unmarked) | % | 0 |
| CC(C)c1cccc(C(C)C)c1OC(=O)OC(C)C(NC(=O)C(N)Cc1cnc[nH]1)C(=O)O.Cl.Cl (centres unmarked) | % | 0 |
| CC(C)c1cccc(C(C)C)c1OC(=O)OC(C)C(NC(=O)C(N)CCCN=C(N)N)C(=O)O.Cl.Cl.Cl (centres unmarked) | % | 25 |
| CC(C)c1cccc(C(C)C)c1OC(=O)OC(C)C(NC(=O)CN)C(=O)O (centres unmarked) | % | 2 |
| CC(C)CC(N)C(=O)NC(C(=O)O)C(C)OC(=O)Oc1c(C(C)C)cccc1C(C)C.Cl (centres unmarked) | % | 0 |
| CC(C)c1cccc(C(C)C)c1OC(=O)OC(C)C(NC(=O)C(N)CN)C(=O)O.Cl.Cl (centres unmarked) | % | 0 |
| CC(C)c1cccc(C(C)C)c1OC(=O)OC(C)C(NC(=O)C(N)CCCN)C(=O)O.Cl.Cl (centres unmarked) | % | 2 |
